System: rat footpad
assay.comment: Rat footpad (paw-lick) pain test
Format: in vivo, Male Sprague Dawley rats
experimental.context: Example 9; injected at concentrations above the CMC for the detergent
quantity.name: Pain in rat footpad model, survey of detergents (result in words)

>>> result("CCCCCCCCCCCCCC[N+](C)(C)CCCS(=O)(=O)[O-] [Zwittergent ® 3-14]")
"caused significant pain"
>>> result("C[C@H](CCC(=O)NCCC[N+](C)(C)CCCS(=O)(=O)[O-])[C@H]1CC[C@H]2[C@@H]3[C@H](O)C[C@@H]4C[C@H](O)CC[C@]4(C)[C@H]3C[C@H](O)[C@]12C [CHAPS ®]")
"caused significant pain"
>>> result("CCCCCCCCCCCC[N+](C)(C)CCCS(=O)(=O)[O-] [Zwittergent ® 3-12]")
"caused significant pain"
>>> result("CCCCCCCCO[C@@H]1O[C@H](CO)[C@@H](O)[C@H](O)[C@H]1O [Octyl glucoside, n-Octyl-b-D-glucopyranoside]")
"induced pain"
>>> result("CCCCCCCCCC[N+](C)(C)CCCS(=O)(=O)[O-] [Zwittergent ® 3-10]")
"caused significant pain"
>>> result("CCCCCCCCCCCCO[C@@H]1O[C@H](CO)[C@@H](O[C@H]2O[C@H](CO)[C@@H](O)[C@H](O)[C@H]2O)[C@H](O)[C@H]1O [Dodecyl maltoside, n-Dodecyl-beta-D-maltoside]")
"induced pain"

====

System: rat footpad
assay.comment: Rat footpad (paw-lick) pain test
Format: in vivo, Male Sprague Dawley rats
experimental.context: Examples 1-7 and 10; footpad injection 0.1 or 0.2 ml
quantity.name: Pain response in the rat footpad model (result in words)

>>> result("C[C@H](CCC(=O)NCCC[N+](C)(C)CCCS(=O)(=O)[O-])[C@H]1CC[C@H]2[C@@H]3[C@H](O)C[C@@H]4C[C@H](O)CC[C@]4(C)[C@H]3C[C@H](O)[C@]12C [CHAPS ®]")
"cause considerable pain"
>>> result("CCCCCCCCO[C@@H]1O[C@H](CO)[C@@H](O)[C@H](O)[C@H]1O [Octyl glucoside, n-Octyl-b-D-glucopyranoside]")
"cause considerable pain"
